Assay: Plasma pharmacokinetic study after oral and tail vein administration
Assay type: in vivo, Sprague-Dawley (SD) rats
Conditions: Sprague-Dawley, rat, plasma, iv; rats, I.V (tail vein) 1.92 mg/kg, n = 6; read-out: Tmax
reportedMetric: Tmax (min)
Give the value, in units of min, as a plain number.

Find the recorded Tmax belonging to `Cc1c(O)c(=O)ccn1Cc1cc2ccc(OCc3cccc(F)c3)cc2oc1=O` and report it.
4.98

---

Assay: Plasma pharmacokinetic study after oral and tail vein administration
Type: in vivo, Sprague-Dawley (SD) rats
Settings: Sprague-Dawley, rat, plasma, po; rats, P.O 15 mg/kg, n = 6
reportedMetric: half-life (h)
Give the value, in units of h, as a plain number.

Find the recorded half-life belonging to `Cc1c(O)c(=O)ccn1Cc1cc2ccc(OCc3cccc(F)c3)cc2oc1=O` and report it.
9.16

---

Assay: Plasma pharmacokinetic study after oral and tail vein administration
Assay type: in vivo, Sprague-Dawley (SD) rats
Design: unit not given here
Settings: Sprague-Dawley, rat, plasma, iv; rats, I.V (tail vein) 1.92 mg/kg, n = 6
reportedMetric: clearance
# output: bare number, no unit

Find the recorded clearance belonging to `Cc1c(O)c(=O)ccn1Cc1cc2ccc(OCc3cccc(F)c3)cc2oc1=O` and report it.
0.0268

---

Assay: Plasma pharmacokinetic study after oral and tail vein administration
Format: in vivo, Sprague-Dawley (SD) rats
Conditions: Sprague-Dawley, rat, plasma, 15 mg/kg; rats, oral administration; read-out: time to maximum plasma concentration (converted)
Protocol: Non-compartmental calculations were performed using the PK Solver plug-in (China Pharmaceutical University, Nanjing, China) to estimate the main pharmacokinetic parameters. All values were expressed as the mean ± standard deviation. […] For oral administration, six SD rats were fed with freely available food and water and fasted with free access to water for 12 h before drug administration. The rats in each group were weighed and recorded; then, the oral dose was 15 mg/kg. […]
reportedMetric: Tmax (min)
Give the value, in units of min, as a plain number.

Find the recorded Tmax belonging to `Cc1c(O)c(=O)ccn1Cc1cc2ccc(OCc3cccc(F)c3)cc2oc1=O` and report it.
45

---

Assay: Plasma pharmacokinetic study after oral and tail vein administration
Type: in vivo, Sprague-Dawley (SD) rats
Settings: Sprague-Dawley, rat, plasma, iv; rats, I.V (tail vein) 1.92 mg/kg, n = 6; read-out: AUC0–24
reportedMetric: AUC(0-t) (ng·h/mL)
Give the value, in units of ng·h/mL, as a plain number.

Find the recorded AUC(0-t) belonging to Cc1c(O)c(=O)ccn1Cc1cc2ccc(OCc3cccc(F)c3)cc2oc1=O [XYY-CP1106] and report it.
540

---

Assay: Plasma pharmacokinetic study after oral and tail vein administration
Assay type: in vivo, Sprague-Dawley (SD) rats
Details: Sprague-Dawley, rat, plasma, iv; rats, I.V (tail vein) 1.92 mg/kg, n = 6
reportedMetric: half-life (h)
Give the value, in units of h, as a plain number.

Find the recorded half-life belonging to Cc1c(O)c(=O)ccn1Cc1cc2ccc(OCc3cccc(F)c3)cc2oc1=O [XYY-CP1106] and report it.
3.5

---

Test: Plasma pharmacokinetic study after oral and tail vein administration
Format: in vivo, Sprague-Dawley (SD) rats
Conditions: Sprague-Dawley, rat, plasma, po; rats, P.O 15 mg/kg, n = 6
reportedMetric: AUC(0-inf) (ng·h/mL)
Give the value, in units of ng·h/mL, as a plain number.

Find the recorded AUC(0-inf) belonging to `Cc1c(O)c(=O)ccn1Cc1cc2ccc(OCc3cccc(F)c3)cc2oc1=O` and report it.
503

---

Test: Plasma pharmacokinetic study after oral and tail vein administration
Format: in vivo, Sprague-Dawley (SD) rats
Conditions: Sprague-Dawley, rat, plasma, po; rats, P.O 15 mg/kg vs I.V 1.92 mg/kg, from AUC0–∞; read-out: absolute oral bioavailability (F)
reportedMetric: bioavailability (%)
Give the value, in units of %, as a plain number.

Find the recorded bioavailability belonging to Cc1c(O)c(=O)ccn1Cc1cc2ccc(OCc3cccc(F)c3)cc2oc1=O [XYY-CP1106] and report it.
10.7

---

Assay: Plasma pharmacokinetic study after oral and tail vein administration
Format: in vivo, Sprague-Dawley (SD) rats
Conditions: Sprague-Dawley, rat, plasma, po; rats, P.O 15 mg/kg, n = 6
Method: Non-compartmental calculations were performed using the PK Solver plug-in (China Pharmaceutical University, Nanjing, China) to estimate the main pharmacokinetic parameters. All values were expressed as the mean ± standard deviation. […] For oral administration, six SD rats were fed with freely available food and water and fasted with free access to water for 12 h before drug administration. The rats in each group were weighed and recorded; then, the oral dose was 15 mg/kg. […]
reportedMetric: Cmax
# do not omit the unit; it follows the number

Find the recorded Cmax belonging to `Cc1c(O)c(=O)ccn1Cc1cc2ccc(OCc3cccc(F)c3)cc2oc1=O` and report it.
153 ng/mL

---

Assay: Plasma pharmacokinetic study after oral and tail vein administration
Assay type: in vivo, Sprague-Dawley (SD) rats
Conditions: Sprague-Dawley, rat, plasma, oral; rats, P.O 15 mg/kg, n = 6
reportedMetric: half-life

Find the recorded half-life belonging to `Cc1c(O)c(=O)ccn1Cc1cc2ccc(OCc3cccc(F)c3)cc2oc1=O` and report it.
8.26 to 10.1 h
